Assay: binders of probe aHhip on microarray, primary screen, stem cell growth factor project, biochemical, small-molecule microarray, fluorescence 635/667 (AID 1087);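 also: score merges spot fluorescence at 667nm with spot signal to noise ratio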
Conditions: higher = more signal
Label MET when composite z-score is at or above -0.2; anything below gets NOT MET.

[
  {
    "MOLECULE": "Cc1ccc(S[C@]2(C(=O)O)CC(=O)N(C3CCCCC3)[C@@H]2c2ccc(CO)cc2)cc1",
    "CATEGORY_LABEL": "MET"
  },
  {
    "MOLECULE": "CC(C)(C)OC(=O)CC[C@@]1(C(=O)N2CCCCC2)N=C(c2ccc(OCCCO)cc2)O[C@@H]1c1ccccc1N=[N+]=[N-]",
    "CATEGORY_LABEL": "MET"
  },
  {
    "MOLECULE": "COc1ccc([Si](C)(C)[C@H]2[C@H](CC(=O)N3CCC[C@H]3CO)O[C@@]3(C(=O)N(Cc4ccc(N5C(=O)c6cccc7cccc5c67)cc4)c4ccccc43)[C@@H]2C)cc1",
    "CATEGORY_LABEL": "NOT MET"
  },
  {
    "MOLECULE": "CCCc1cc2c(n1Cc1ccc(OC)cc1)C(C)C1CN(C(=O)c3ccccc3)C(C)(C(=O)OC)C21 (centres undefined)",
    "CATEGORY_LABEL": "MET"
  },
  {
    "MOLECULE": "CCCCC=C[C@@H](NC(=O)CCc1ccccc1)c1ccccc1",
    "CATEGORY_LABEL": "MET"
  },
  {
    "MOLECULE": "COc1ccccc1CN1C(=O)c2ccccc2[C@](Cc2ccccc2I)(C(=O)NCCN2CCOCC2)[C@@H]1c1ccc(CO)cc1",
    "CATEGORY_LABEL": "MET"
  },
  {
    "MOLECULE": "COC(=O)[C@@]1(Cc2ccc(OC)cc2)[C@H]2c3cc(C(=O)N4CCCC4)n(CCF)c3C[C@H]2CN1C(=O)c1ccccc1",
    "CATEGORY_LABEL": "MET"
  },
  {
    "MOLECULE": "O=C1C2C=CC(C(O)c3cccc4ccccc34)N(Nc3ccccc3)C2C(=O)N1c1ccccc1 (centres undefined)",
    "CATEGORY_LABEL": "NOT MET"
  },
  {
    "MOLECULE": "O=C1N(Cc2ccccc2)c2ccccc2[C@H]2OC(c3ccc(OCCCO)cc3)=N[C@@]12CCS(=O)(=O)c1ccccc1",
    "CATEGORY_LABEL": "MET"
  },
  {
    "MOLECULE": "COc1ccccc1CN1C(=O)c2ccccc2[C@@]2(Cc3ccccc3N(C3CC3)C2=O)[C@@H]1c1ccc(CO)cc1",
    "CATEGORY_LABEL": "MET"
  },
  {
    "MOLECULE": "N#Cc1ccc(NN2C(C(O)c3ccco3)C=CC3C(=O)N(c4ccccc4)C(=O)C32)cc1 (centres undefined)",
    "CATEGORY_LABEL": "NOT MET"
  },
  {
    "MOLECULE": "COc1ccc([Si](C)(C)[C@@H]2[C@@H](CC(=O)N(CCO)Cc3ccccc3)O[C@]3(C(=O)N(C)c4c(Br)cc(C)cc43)[C@H]2C)cc1",
    "CATEGORY_LABEL": "MET"
  },
  {
    "MOLECULE": "O=C1C2C=CC(C(O)c3ccccn3)N(Nc3ccccc3)C2C(=O)N1c1ccccc1 (centres undefined)",
    "CATEGORY_LABEL": "MET"
  },
  {
    "MOLECULE": "O=C1NC(=O)C2C1C=CC(C(O)c1ccc(-c3ccccc3)s1)N2Nc1ccccn1 (centres undefined)",
    "CATEGORY_LABEL": "MET"
  },
  {
    "MOLECULE": "O=C1O[C@H](c2ccccc2)[C@H](c2ccccc2)N2[C@H]1[C@@H](C(=O)NC[C@H](O)c1ccccc1)[C@]1(C(=O)Nc3ccccc31)[C@H]2c1ccccc1OCCO",
    "CATEGORY_LABEL": "NOT MET"
  },
  {
    "MOLECULE": "Cc1ccc(S[C@]2(C(=O)NCc3ccccc3)CC(=O)N(C3Cc4ccccc4C3)[C@@H]2c2ccc(CO)cc2I)cc1",
    "CATEGORY_LABEL": "NOT MET"
  },
  {
    "MOLECULE": "CC(C)CNC(=O)[C@@]1(c2ccc([N+](=O)[O-])cc2)CC(=O)N(C(C)C)[C@@H]1c1ccc(CO)cc1",
    "CATEGORY_LABEL": "MET"
  },
  {
    "MOLECULE": "CC(C)=CCCC(C)=CC(O)C1C=CC2C(=O)N(c3ccccc3)C(=O)C2N1Nc1ccc([N+](=O)[O-])cc1 (centres undefined)",
    "CATEGORY_LABEL": "MET"
  },
  {
    "MOLECULE": "COC(=O)C(CC#Cc1ccc2c(c1)[C@]1(C(=O)N2)[C@H](C(=O)N2CCc3cc(OC)c(OC)cc3C2)[C@H]2C(=O)O[C@H](c3ccccc3)[C@H](c3ccccc3)N2[C@@H]1c1ccc(OCCO)cc1)C(=O)OC",
    "CATEGORY_LABEL": "MET"
  },
  {
    "MOLECULE": "CCCCCCCCCCC(O)C1C=CC2C(=O)NC(=O)C2N1Nc1ccccn1 (centres undefined)",
    "CATEGORY_LABEL": "NOT MET"
  },
  {
    "MOLECULE": "COc1ccccc1CN1C(=O)c2ccccc2[C@@H](C(=O)NCC(C)C)[C@@H]1c1ccc(CO)cc1",
    "CATEGORY_LABEL": "MET"
  },
  {
    "MOLECULE": "COC(=O)[C@H]1N=C(c2ccc(OCCCO)cc2)O[C@H]1c1ccccc1CN=[N+]=[N-]",
    "CATEGORY_LABEL": "MET"
  },
  {
    "MOLECULE": "CN(C)CCCCNC(=O)[C@H]1C[C@H]2C(=O)N[C@@H](CCCC[N+](C)(C)C)C(=O)N2[C@H]1c1cccc(OCCO)c1",
    "CATEGORY_LABEL": "MET"
  },
  {
    "MOLECULE": "NC(=O)NCC#Cc1ccc2c(c1)[C@]1(C(=O)N2)[C@H](c2ccc(OCCO)cc2)N2[C@H](c3ccccc3)[C@H](c3ccccc3)OC(=O)[C@H]2[C@@H]1C(=O)N1CCN(c2ncccn2)CC1",
    "CATEGORY_LABEL": "MET"
  }
]

---

Test: compounds binding Alexa647 anti-His antibody – biochemical, small-molecule microarray, 635 nm fluorescence, artefact control for SMM control protein annotation, primary screen (AID 1128);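 also: score merges feature fluorescence with signal-to-noise for each printed compound spot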
Conditions: higher = more signal
Readings of composite z-score for the listed compounds

[
  {
    "COMPOUND": "C=C(C(=O)CC[C@H](OC(=O)c1cccnc1)c1ccc(OCCO)cc1)C(C)C",
    "composite z-score": 0.423
  },
  {
    "COMPOUND": "CCCC=C(CCC)[C@@H](NS(=O)(=O)c1ccccc1)c1ccc(C(F)(F)F)cc1",
    "composite z-score": 0.438
  },
  {
    "COMPOUND": "COC(=O)[C@@]1(Cc2ccccc2)[C@H]2c3cc(C(=O)N(C)C)n(Cc4ccccn4)c3C[C@H]2CN1C(=O)c1ccccc1",
    "composite z-score": 1.54
  },
  {
    "COMPOUND": "C=CCC(OC(C)=O)[C@@H]1[C@@H](N(Cc2ccc(-c3ccccc3)cc2)C(=O)Cc2ccc(OC)cc2)c2cc(OCCCO)ccc2N1C(=O)c1ccc(-c2ccccc2)cc1 (some centres undefined)",
    "composite z-score": -0.163
  }
]

---

Assay: small molecules captured by biotinylated probe aFST – biochemical, small-molecule microarray, fluorescence 635/667, stem cell growth factor project, primary screen (AID 1086);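 also: score merges 667 nm fluorescence with signal-to-noise of each printed compound spot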
Settings: higher = more signal
MEASUREMENT_NAME: composite z-score

[
  {
    "STRUCTURE_NOTATION": "CO[C@H]1O[C@H](CO)[C@@H](OC(=O)Nc2cccc(F)c2)[C@H](OC(=O)Nc2ccc3c(c2)OCO3)[C@H]1OC(=O)Nc1ccc2c(c1)OCO2",
    "MEASUREMENT_NAME": "composite z-score",
    "TEST_VALUE": -0.253
  },
  {
    "STRUCTURE_NOTATION": "CC(=O)NCCCC[C@@H]1NC(=O)[C@H]2C[C@@H](C(=O)NCCCCCN)[C@@H](c3cccc(OCCO)c3)N2C1=O",
    "MEASUREMENT_NAME": "composite z-score",
    "TEST_VALUE": 0.547
  },
  {
    "STRUCTURE_NOTATION": "COCCCNC(=O)[C@@]1(C)c2ccccc2C(=O)N(c2ccc(C)cn2)[C@H]1c1ccc(CO)cc1",
    "MEASUREMENT_NAME": "composite z-score",
    "TEST_VALUE": -0.892
  },
  {
    "STRUCTURE_NOTATION": "COC(=O)[C@H]1N=C(c2ccc(OCCCO)cc2)O[C@H]1c1ccccc1CN=[N+]=[N-]",
    "MEASUREMENT_NAME": "composite z-score",
    "TEST_VALUE": 0.906
  }
]
